Target: UniProt:P51787
Assay: TEVC of homomeric KCNQ1 expressed in Xenopus oocytes
Settings: ΔV0.5act; read-out: EC50, KCNQ1 activation

{"compound": "NC(C(=O)O)c1ccc(F)cc1 (stereo not shown)", "readoutUnit": "nM", "EC50": 90}

---

Target: KCNQ5 (Homo sapiens)
Experiment: TEVC of homomeric KCNQ5 expressed in Xenopus oocytes
Settings: read-out: EC50, KCNQ5 activation

{"structureString": "CS(=O)(=O)N(CC(=O)O)c1cccc(F)c1", "EC50 [nM]": 171}

---

Target: KCNQ4 (Homo sapiens, UniProt P56696)
Experiment: TEVC of homomeric KCNQ4 expressed in Xenopus oocytes
Conditions: ΔV0.5act; read-out: EC50, KCNQ4 activation
propertyMeasured: EC50 (nM)

{"compound": "NC(C(=O)O)c1ccc(F)cc1 (stereo not shown)", "propertyMeasured": "EC50", "experimentalResult": 49}
